Assay: yeast display, Sf9 membrane polyspecificity reagent, FACS + sequencing; frameworks hold sequencing errors

| biosequence | polyreactivity (PSR sort gate) |
| --- | --- |
| QVQLVESGGGLVQAGGSLRLSCAASGFTFRQYAMGWYRQAPGKEREFFADITFSGDNTRYADSVKGRFTISRDNAKNTVYLQMNSLKPEDTGVYYCNADYLVSWLQFDYWGQGTQVTVSS | low polyreactivity |
| QVQLVESGGGLVQAGGSLSLSCAASGTFSPYAMGWYRQAPGKERELVADITSNTGRTYAASVKGRFTISRDNAKNTVYLQMNSLKPEDTAVYYCNTYGSGTHSTGYDYWGQGTQVTVSS | low polyreactivity |
| QVQLVESGGGIVQAGGSLSLSCAASGNIFTAYAMGWYRQAPGKERELVATITSSGDSTYYADSVKGRFTISRDNAKNTVYLQMNRLKPEDTSVYYFATADPSASNEVYEYDYWGQGTQVTVSS | low polyreactivity |
| QVQLGESGGGLVQAGGSLRLSCAASGFTFGRYTMGWYRPAPGKERELVASITSSGARTYYADSVKGRFTISRDNAKNTVYLQMNSLKPEDTAVYYCNAGKRGSTYYYWGQGTQVTVSS | high polyreactivity |
| QVQVVESGGGLVKAGGSLRLSCAASGGTFGNYAMGWYRQAPRKERELVAAINRSDGGTYYADSVKGRFTISRDNAKNTVYLQMNSLKPEDTAVYYCNAVDFYYDEPYDYWGQGTQVTVSS | low polyreactivity |
| QVQLVESGGGLVQAGGSLRLSCAASGRIFSYYTMGWYRQAPGKEREFVAAISWNDGSTYYADSVKGRFTISRDNSKNTVYLQMNSLKPEDTAVYYCAAEYHYFWWRMDYWGQGTQVTVSS | high polyreactivity |
| QVQLVESGGGLVQAGGSLRLSCAASGSIFRINGMGCYRQAPGKERELVADITGGGSTYYADSVKGRFTISRDNAKNTVYLHMNSLKPEDTAVYYCAKDYYRSYGREDYWGQGTQVTVSS | low polyreactivity |
| QVQLVESGGGLVQAGGSLRLSCAASGSTFDTYAMGWYRQAPGKEMELVAVISSGGGTYYADSVKGRFTISRDNAKNTVYLQMNSLKPEDTAVYYCAADRPTPYGYESTYDYWGQGTQVTVSS | low polyreactivity |
| QVQLVESGGGLVQAGGSLRLSCAASGLIFGRNARGWYRQAPGKERELVAVISKRGGSTYYADSVKGRFTISRDNAKNTVYLQMNSLKPADTAVYYCAADYGSTGNYWGQGTQVTVSS | high polyreactivity |
| QVQLVESGGGLVQAGGSLRLSCAASGSIFSAYVMGWYRQAPGKERELVAAITRSGGSTYYADSVKGRFTISRDNAKNTVYLQMNSLKPEDTAVYYCAVDYLLHYYSYIEDYWGQGTQVTVSS | low polyreactivity |
| QVQLVESGGGLVQAGGSLRLSCAASGRIFGRYAMGWYRQAPGKERELVAAITSGGSTKYADSVKGRFTISRDNAKNNVDLQMNSLKPEDTAVYYCAVVPYGPVYRSYYYWGQGTQVTVSS | high polyreactivity |
